Numbers sourced from patent US11793827B2.

Assay: Plasma stability (human plasma)
Settings: human, pooled plasma, pH 7.4
ASSAY_ENDPOINT: half-life at 2 µM

Here's what some known entries look like.
| COMPOUND | half-life at 2 µM |
| --- | --- |
| C#C[C@]1(COC(=O)OCCCC23CC4CC(CC(C4)C2)C3)O[C@@H](n2cnc3c(N)nc(F)nc32)C[C@@H]1OC(=O)C(C)C | 50 to 200 min |
| C#C[C@]1(COC(=O)OC23CC4CC(CC(C4)C2)C3)O[C@@H](n2cnc3c(N)nc(F)nc32)C[C@@H]1OC(=O)C(C)C | > 200 min |
| C#C[C@]1(COC(=O)OCCC23CC4CC(CC(C4)C2)C3)O[C@@H](n2cnc3c(N)nc(F)nc32)C[C@@H]1OC(=O)C(C)C | < 50 min |

Tell me half-life at 2 µM reported for C#C[C@]1(COC(=O)CCCC23CC4CC(CC(C4)C2)C3)O[C@@H](n2cnc3c(N)nc(F)nc32)C[C@@H]1O
< 50 min

Please list half-life at 2 µM recorded for the molecule C#C[C@]1(COC(=O)C23CC4CC(CC(C4)C2)C3)O[C@@H](n2cnc3c(N)nc(F)nc32)C[C@@H]1O
< 50 min

Return reported half-life at 2 µM. Input molecule: C#C[C@]1(COC(=O)CC23CC4CC(CC(C4)C2)C3)O[C@@H](n2cnc3c(N)nc(F)nc32)C[C@@H]1O
> 200 min
